Listing of entries alongside the reported protein stability index.
- Measurement Protocol: protein stability index of a GFP-peptide fusion (GPS, HEK-293T) (PSI 1-6); higher = more stable;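 also: 24-mer peptide tiles fused after GFP, lentivirally expressed, FACS-sorted into six equal bins by GFP/DsRed ratio, decoded by Illumina sequencing, PSI is the read-weighted mean bin number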
- Applied Conditions: treatment: DMSO; c terminus: a fixed tail appended
Lab note: record the figure alone, no unit after it.

>>> test_result("QQPGQDALAVKAGHGYDSKKQQEL [ZBED1]")
5.35

Quick one: protein stability index for VHRGDGANPFQAYLDVDLTLTREQ [RTN2] ?
3.88

Quick one: protein stability index for CQVEVRLLLAYNSSARIPKCPWME [INTS4] ?
3.21

I'd like to know its protein stability index. The sequence in question is SYEKAVKTRVDLKELGQSQKEQGL [PDZK1]
4.75

----------
- Measurement Protocol: protein stability index of a GFP-peptide fusion (GPS, HEK-293T) (PSI 1-6); higher = more stable
- Applied Conditions: treatment: DMSO; c terminus: a fixed tail appended
# protein stability index per entry
Please respond with just the number, no unit label.

For orientation, consider the following solved cases.
>>> test_result("RKPVEAESVEGVVRILLEHYYKEN [INTS4]")
2.35
>>> test_result("GAFRKGKSFILDFMLRYLYSQKES [ATL3]")
2.3
>>> test_result("FTCDLQHTETGEEVLRMCVAVKKK [VPS39]")
2.84
>>> test_result("VDDAYVRRMAAEATEWQKAGAPPP [SRPK2]")
4.52
>>> test_result("GAQVNMPADSFESPLTLAACGGHV [ANKRD17]")
4.23
>>> test_result("LVGNKSDLRHLRAVPTDEARAFAE [RAB11A]")
4.29
>>> test_result("NTCSVITTLKGHEGSVACLWWDPI [WDFY1]")
2.09
>>> test_result("MGGAVSAGEDNDDLIDNLKEAQYI [PCMTD1]")
4.82
>>> test_result("VAAACACGFTVAQIITSLVFHLPF [OR10K2]")
3.43
>>> test_result("RSSSESKLPSSGSGKRLSGVSSVD [RIPK4]")
5.03

Could you tell me which protein stability index is on file for VEINDLDPEVFKEMMRFIYTGRAP [SPOPL] ?
2.36

Which protein stability index is listed for ARLQDFQELELVLMISENNFLFRN [ANKRD40] ?
2.97

What protein stability index value was documented for this sequence, RGYPPPRDSYSSSSRGAPRGGGRG [RBMX] ?
5.12

Report protein stability index for LNPSKLMEKEINGSKVTCRGLLEY [ATL3] please.
2.92

Reported protein stability index, sequence TETREEDVTDEHGEREPFAETDEH [FAM9B] : ____
5.69

Field request: protein stability index | item: GLLQYGSTVKNEFSLKTFKRKSEV [MATN2]
3.02

So what does the record say about protein stability index for ERLQAIAEKRKRQAEIENKRRQLE [PALM] ?
3.74

----------
- Measurement Protocol: protein stability index of a GFP-peptide fusion (GPS, HEK-293T) (PSI 1-6); higher = more stable
- Applied Conditions: treatment: DMSO; c terminus: a fixed tail appended
Label YES when protein stability index >= 4; otherwise NO.

Example results:
>>> category_label("FFSVIFMTVGILSNSLAIAILMKA [PTGFR]")
"NO"
>>> category_label("GDWIGLYRHFLKSPNFDGWFKTRR [DENND6A]")
"NO"
>>> category_label("WKYILLGLADVEANYVIVRAYQYT [SLC35F2]")
"NO"

Say whether LLSRNQLSTAASLGPSGLQNHGQH [LCOR] shows protein stability index of 4 or more.
NO

Kindly determine if protein stability index recorded for FPKQILDQNNVIENEETGEFSIDN [MIA2] is above or exactly 4.
YES

Decide: is the reported value of protein stability index for MDVERQETPEWLDSDSCQKCDQPF [WDFY2] equal to or greater than 4?
YES

Check this sequence for protein stability index at or above 4: SSQESGEEAGSQENHPQESKGQPR [CHGB]
YES
